system: PANC-1; assay: Cytotoxicity against human PANC-1 cells assessed as reduction in cell viability incubated for 72 hrs by Celltiter-Glo assay; format: functional, cell-based; conditions: PANC-1, 72 h
Could you please report measured IC50 for the items listed next?
Please reply with the bare figure in µM and do not write the unit itself.

Query: Return IC50 for the following molecule: `C=C1C(=O)O[C@@H]2[C@@H]3C4=C(C(=O)[C@H]3C)[C@]3(CC[C@@]4(O)CC[C@@H]12)C(=O)C[C@H]1C(=C)CC[C@@H]2[C@H](OC(=O)[C@H]2C)[C@H]13`
Reply: 4.9

Query: Write down IC50 measured for item `C=C1C(=O)C2=C3[C@H]1[C@H]1OC(=O)C(=C)[C@@H]1CC[C@]3(O)CC[C@]21C(=O)[C@H](C[C@@H]2C(=O)C[C@H]3C(=C)CC[C@H]4C(=C)C(=O)O[C@@H]4[C@@H]23)[C@H]2C(=C)CC[C@H]3C(=C)C(=O)O[C@@H]3[C@H]21`
Reply: 0.4

Measured values drawn from ChEMBL document CHEMBL4831526 for this set.
